assay: E. coli DRC41 culture turbidity changes, primary screen, E. coli filamentation inducer project, strain DRC41, OD650, 48 h (AID 1152);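 note: E. coli MC1000 strain DRC41 lacking acrAB efflux pump and sulA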; conditions: E. coli DRC41 (acrAB sulA), higher = more signal, called active from +8 up or from −8 down
Overview of recorded z-score for various molecules
Answer using only a numeral; do not append any unit.

Query string: Please report the measured z-score for OCCCc1cc[n+](Cc2cc3c(cc2Br)OCO3)cc1
Result string: 0.855

Query string: Please report the measured z-score for CCOC(=O)C1=CCC(c2cccn2C(=O)OC(C)(C)C)N(S(=O)(=O)c2ccc(C)cc2)C1 (stereo unspecified)
Result string: -0.258

Query string: Please report the measured z-score for C=C(COC)C(=O)CC[C@H](OC(C)=O)c1ccc(CO)o1
Result string: 0.82

* * *

assay: fission yeast growth modulation, primary screen, strain 972, OD600, 24 h, no modulator (AID 1090);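 note: basal condition with compound alone and no growth modifier present; test concentration not given here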; details: S. pombe 972 growth, called active from +8 up or from −8 down
Calls of active or inactive are those of the source.
API: response.call in 1 (yes) (active), 0 (no) (inactive)

Examples from the recorded data:
>  <compound>
CC(C)N1C(=O)[C@@]2(Cc3ccccc31)c1ccccc1C(=O)N(Cc1ccccc1C(F)(F)F)[C@H]2c1ccc(CO)cc1

>  <label_value>
0 (no)

$$$$
>  <compound>
COc1cc(Cc2cc3c(c(-c4ccccc4)n2)[Si](C(C)C)(C(C)C)OC3)cc(OC)c1OC

>  <label_value>
0 (no)

$$$$
>  <compound>
CCCCN1CC=CC23O[C@@H]4/C=C\CCC(C)OC(=O)C4[C@H]2C(=O)N(CCO)[C@@H]3C1=O (some centres not stated)

>  <label_value>
0 (no)

$$$$
>  <compound>
CO[C@H]1O[C@H](CO)[C@@H](OC(=O)CCc2ccccc2)[C@@H]2OC(=O)[C@@H](Cc3ccc4ccccc4c3)C/C=C/C[C@H](Cc3ccc4ccccc4c3)C(=O)O[C@@H]12

>  <label_value>
0 (no)

$$$$
>  <compound>
CC(C)[Si](C#Cc1ccccc1)(O[C@H](c1ccccc1)c1cn(Cc2ccccc2)nn1)C(C)C

>  <label_value>
1 (yes)

$$$$
>  <compound>
COC(=O)[C@@]1(Cc2ccc(F)cc2)[C@H]2c3cc(C(=O)N4CCCC4)n(Cc4ccc(C(F)(F)F)nc4)c3C[C@H]2CN1C(=O)c1ccccc1

>  <label_value>
0 (no)

$$$$

Query string: Please state the recorded outcome for this compound: C[C@]1(C(=O)NCC(F)(F)F)c2ccccc2C(=O)N(Cc2cc(C(F)(F)F)cc(C(F)(F)F)c2)[C@H]1c1ccc(CO)cc1
Result string: 0 (no)

* * *

assay: adipocyte viability effects, profiling panel, cell-based, 3T3-L1 adipocytes, calcein-AM fluorescence, 48 h, basal (AID 1163); settings: 3T3-L1 adipocytes viability, higher = more signal; note: test concentration not given here
measured_parameter: z-score
Answer using only a numeral; do not append any unit.

Query string: Please report the measured z-score for CO[C@H]1O[C@H](CO)[C@@H](OC(=O)Nc2ccccc2)[C@@H]2OC(=O)[C@@H](Cc3ccccc3)C/C=C/C[C@H](Cc3ccccc3)C(=O)O[C@@H]12
Result string: -0.0852

Query string: Please report the measured z-score for CCCCC(=C=CC[C@@H](O)c1ccc(OCCO)cc1)CCO
Result string: -0.0802

Query string: Please report the measured z-score for CC[C@@H](O[Si](C#C[Si](C(C)C)(C(C)C)C(C)C)(C(C)C)C(C)C)c1cn([C@H](CO)Cc2ccccc2)nn1
Result string: -1.04

Query string: Please report the measured z-score for C=C(COC)/C(=C/C[C@@H](OC(=O)c1ccncc1)c1ccccc1OCCO)c1cnc2ccccc2c1
Result string: 0.317

Query string: Please report the measured z-score for C=CC[C@]1(C(=O)NCC(O)CO)N=C(c2ccc(OCCCO)cc2)O[C@H]1c1ccccc1CN=[N+]=[N-] (some centres not stated)
Result string: -0.0459

Query string: Please report the measured z-score for C=CC[C@]1(C(=O)NCCN2CCOCC2)N=C(c2ccc(OCCCO)cc2)O[C@H]1c1ccccc1
Result string: -0.0761

Query string: Please report the measured z-score for CC[C@H]1C2=C3C(CC[C@H]4C(OCc5ccc(F)cc5C(F)(F)F)OC[C@](C)([C@@H]34)N(C(=O)OC(C)(C)C)C2)C(COC(C)=O)C1COC(C)=O (some centres not stated)
Result string: -0.154

* * *

assay: binders from COS7 lysate, DM2A8 probe, primary screen, torsin A project, cell lysate, small-molecule microarray, fluorescence 635/667 (AID 1065); conditions: higher = more signal, COS7 lysate expressing mutant human TOR1A
Values of composite z-score greater than or equal to 0.4 map to MET; values below map to NOT MET.

>  <compound>
O=C1NC(=O)C2C1C=CC(C(O)c1ccc(F)cc1)N2Nc1ccc(Cl)cc1Cl (stereo not drawn)

>  <label_value>
NOT MET

$$$$
>  <compound>
COCCOC(=O)N1C(=O)[C@@]2(c3cc(C#CCNC(N)=O)ccc31)[C@H](C(=O)Nc1nc3ccccc3s1)[C@H]1C(=O)O[C@H](c3ccccc3)[C@H](c3ccccc3)N1[C@@H]2c1ccc(O)cc1

>  <label_value>
NOT MET

$$$$
>  <compound>
C[C@]12C(=O)N(CCO)[C@@H]3C(=O)N(c4ccc(Cl)cc4)CC=CC31O[C@@H]1/C=C\CCCOC(=O)C12 (stereo partly drawn)

>  <label_value>
NOT MET

$$$$

Query string: Textbook exercise: given the entry C=CC[C@H](O)c1ccc(O)c2ccccc12 , state whether its composite z-score is greater than or equal to 0.4.
Result string: MET

Query string: Textbook exercise: given the entry CCOC(=O)C[C@H]1[C@H](OC(=O)Cc2ccc3c(c2)OCO3)[C@@H](NC(=O)CC(C)C)c2cc(OCCCO)ccc2N1C(=O)c1ccc2ccccc2n1 , state whether its composite z-score is greater than or equal to 0.4.
Result string: MET

Query string: Textbook exercise: given the entry COC(=O)[C@@]1(Cc2ccc(F)cc2)[C@H]2c3cc(C(=O)N(C)C)n(Cc4ccsc4Br)c3C[C@H]2CN1C(=O)c1ccccc1 , state whether its composite z-score is greater than or equal to 0.4.
Result string: NOT MET

Query string: Textbook exercise: given the entry COCCOC(=O)N1C(=O)[C@@]2(c3cc(C#CCNC(N)=O)ccc31)[C@H](c1ccc(O)cc1)N1[C@H](c3ccccc3)[C@H](c3ccccc3)OC(=O)[C@H]1[C@@H]2C(=O)N1CCc2cc(OC)c(OC)cc2C1 , state whether its composite z-score is greater than or equal to 0.4.
Result string: NOT MET

* * *

target: Torsin-1A-interacting protein 1 (Homo sapiens) (UniProt Q5JTV8); experiment: LAP1 binders from COS7 cell lysate, primary screen, small-molecule microarray, 635/667 nm fluorescence (AID 1116); conditions: COS7-hLAP1 lysate binding, 635 nm fluorescence, higher = more signal
Sequence (Q5JTV8 whole entry, looked up): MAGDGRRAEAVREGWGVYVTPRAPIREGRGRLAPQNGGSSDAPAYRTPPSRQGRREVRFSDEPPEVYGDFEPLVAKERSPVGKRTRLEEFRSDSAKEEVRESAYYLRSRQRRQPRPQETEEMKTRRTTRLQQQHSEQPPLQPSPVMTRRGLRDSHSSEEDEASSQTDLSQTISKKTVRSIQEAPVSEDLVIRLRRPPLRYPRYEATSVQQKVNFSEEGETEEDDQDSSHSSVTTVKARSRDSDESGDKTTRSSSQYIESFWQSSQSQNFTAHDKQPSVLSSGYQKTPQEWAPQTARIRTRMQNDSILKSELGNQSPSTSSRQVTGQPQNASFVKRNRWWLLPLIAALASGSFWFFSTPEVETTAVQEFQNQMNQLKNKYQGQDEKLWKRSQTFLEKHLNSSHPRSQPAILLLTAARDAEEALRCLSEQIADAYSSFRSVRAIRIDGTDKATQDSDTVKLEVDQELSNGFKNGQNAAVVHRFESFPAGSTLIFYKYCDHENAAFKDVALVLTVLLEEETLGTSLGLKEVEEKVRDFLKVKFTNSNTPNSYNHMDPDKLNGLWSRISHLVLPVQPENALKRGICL
measured_parameter: composite z-score

Below, each entry is followed by its recorded composite z-score result.
>  <molecule>
OCCCc1cc[n+](Cc2cc3c(cc2Br)OCO3)cc1

>  <measured_parameter>
composite z-score

>  <value_observed>
-0.81

$$$$
>  <molecule>
C=C(/C=C\CNS(=O)(=O)c1ccc(C)cc1)[C@H](O)[C@H]1CCCN1S(=O)(=O)c1ccccc1[N+](=O)[O-]

>  <measured_parameter>
composite z-score

>  <value_observed>
0.612

$$$$
>  <molecule>
O=C1NC(=O)C2C1C=CC(C(O)C(c1ccccc1)c1ccccc1)N2Nc1ccccn1 (configuration not stated)

>  <measured_parameter>
composite z-score

>  <value_observed>
1.63

$$$$
>  <molecule>
COCCCNC(=O)[C@@]1(Cc2ccccc2I)c2ccccc2C(=O)N(C2CCCCC2)[C@H]1c1ccc(CO)cc1

>  <measured_parameter>
composite z-score

>  <value_observed>
1.57

$$$$
>  <molecule>
COC(=O)[C@@]1(Cc2ccc(F)cc2)[C@H]2c3cc(C(=O)N(C)C)n(Cc4cccc5ccccc45)c3C[C@H]2CN1C(=O)c1ccccc1

>  <measured_parameter>
composite z-score

>  <value_observed>
1.17

$$$$

Query string: Please report the measured composite z-score for C=CCOC(=O)[C@H]1[C@@H]2C(=O)O[C@@H](c3ccccc3)[C@@H](c3ccccc3)N2[C@@H](c2ccc(OCCOC(=O)[C@@H]3C[C@@H]4C(=O)N[C@@H](Cc5ccccc5)C(=O)N4[C@@H]3c3ccc(O)cc3)cc2)[C@]12C(=O)Nc1ccc(I)cc12
Result string: -0.164

Query string: Please report the measured composite z-score for COCCCNC(=O)[C@]1(Cc2ccccc2N=[N+]=[N-])N=C(c2ccc(OCCCO)cc2)O[C@@H]1c1ccccc1
Result string: 1.69

* * *

experiment: S. cerevisiae growth modulation with rapamycin, primary screen, strain BY4716, OD600, 96 h (AID 1091); settings: higher = more signal, called active from +8 up or from −8 down; note: test concentration not given here
measured_parameter: z-score
Answer using only a numeral; do not append any unit.

Below, each entry is followed by its recorded z-score result.
>  <molecule>
Cc1ccc(S[C@]2(C(=O)NCCN3CCOCC3)CC(=O)N(C(C)C)[C@@H]2c2ccc(CO)cc2I)cc1

>  <z-score>
-0.616

$$$$
>  <molecule>
C=CCN1C(=O)[C@]2(O[C@H](CCO)[C@@H]([Si](C)(C)c3ccc(OC)cc3)[C@@H]2C)c2cc(N3C(=O)c4ccccc4Oc4ccccc43)ccc21

>  <z-score>
35.6

$$$$
>  <molecule>
COc1ccc(NN2C(C(O)c3ccc(F)cc3)C=CC3C(=O)N(C4CCCCC4)C(=O)C32)cc1 (configuration not stated)

>  <z-score>
0.91

$$$$
>  <molecule>
C=CC[C@]1(C(=O)NCC(O)CO)N=C(c2ccc(OCCCO)cc2)O[C@H]1c1ccccc1CN=[N+]=[N-] (some centres not stated)

>  <z-score>
-0.83

$$$$
>  <molecule>
C=CC[C@]1(C(N)=O)N=C(c2ccc(OCCCO)cc2)O[C@H]1c1ccccc1N=[N+]=[N-]

>  <z-score>
0.673

$$$$
>  <molecule>
C=CCOC(=O)[C@H]1[C@@H]2C(=O)O[C@@H](c3ccccc3)[C@@H](c3ccccc3)N2[C@@H](c2ccc(OCCOC(=O)[C@H]3C[C@H]4C(=O)NCC(=O)N4[C@H]3c3ccc(O)cc3)cc2)[C@]12C(=O)Nc1ccccc12

>  <z-score>
4.1

$$$$

Shifting focus to the molecule that follows.
Query string: Please report the measured z-score for C=C(C(=O)CC[C@@H](OC(=O)c1ccccc1-c1ccccc1C(=O)O)c1ccc(CO)o1)C(C)C
Result string: -0.881
